System: NFKB
Assay: siRNA transfection array, NFkB EGFP reporter, HepG2 cells
Type: cell-based, human
Conditions: NFKB reporter, 48 h culture
Label Condition not met if Relative intensity ratio of EGFP fluorescence against Scramble II Duplex, NFKB falls below 60%; label Condition met in every other case.

[Q] Please indicate if the recorded Relative intensity ratio of EGFP fluorescence against Scramble II Duplex, NFKB for RARB2 siRNA: siRNA SEQ ID NO: 67 (Dharmacon), targets human RARB transcript variant 2 NM_016152 (GACGGCCUUACCCUAAAUC; chemistry not given here) meets or exceeds 60%.
[A] Condition met

[Q] Please indicate if the recorded Relative intensity ratio of EGFP fluorescence against Scramble II Duplex, NFKB for ER siRNA: siRNA SEQ ID NO: 57 (Dharmacon), targets human estrogen receptor M12674 (CCUUCUAGAAUGUGCCUGG; chemistry not given here) meets or exceeds 60%.
[A] Condition met

[Q] Please indicate if the recorded Relative intensity ratio of EGFP fluorescence against Scramble II Duplex, NFKB for STAT1a siRNA: siRNA SEQ ID NO: 71 (Dharmacon), targets human transcription factor ISGF-3 M97935 (GGAAGACCCAAUCCAGAUG; chemistry not given here) meets or exceeds 60%.
[A] Condition met

[Q] Please indicate if the recorded Relative intensity ratio of EGFP fluorescence against Scramble II Duplex, NFKB for CREB siRNA: siRNA SEQ ID NO: 55 (Dharmacon), targets human CREB M27691 (CAGGAGUCAGUGGAUAGUG; chemistry not given here) meets or exceeds 60%.
[A] Condition met

[Q] Please indicate if the recorded Relative intensity ratio of EGFP fluorescence against Scramble II Duplex, NFKB for HSF-4 siRNA: siRNA SEQ ID NO: 61 (Dharmacon), targets human heat shock transcription factor 4 D87673 (GUCGCCUUCUACUUACAGC; chemistry not given here) meets or exceeds 60%.
[A] Condition met

[Q] Please indicate if the recorded Relative intensity ratio of EGFP fluorescence against Scramble II Duplex, NFKB for STAT3 siRNA: siRNA SEQ ID NO: 74 (Dharmacon), targets human DNA-binding protein APRF L29277 (GAAACUGGAGGAGUUGCAC; chemistry not given here) meets or exceeds 60%.
[A] Condition not met

[Q] Please indicate if the recorded Relative intensity ratio of EGFP fluorescence against Scramble II Duplex, NFKB for SRF siRNA: siRNA SEQ ID NO: 70 (Dharmacon), targets human serum response factor J03161 (CAGCACCUAGCACCUCUAC; chemistry not given here) meets or exceeds 60%.
[A] Condition met

[Q] Please indicate if the recorded Relative intensity ratio of EGFP fluorescence against Scramble II Duplex, NFKB for STAT1b siRNA: siRNA SEQ ID NO: 72 (Dharmacon), targets human transcription factor ISGF-3 M97936 (GGAAGACCCAAUCCAGAUG; chemistry not given here) meets or exceeds 60%.
[A] Condition not met

[Q] Please indicate if the recorded Relative intensity ratio of EGFP fluorescence against Scramble II Duplex, NFKB for c-Fos siRNA: siRNA SEQ ID NO: 53 (Dharmacon), targets human c-fos K00650 (GCGGAGACAGACCAACUAG; chemistry not given here) meets or exceeds 60%.
[A] Condition met

[Q] Please indicate if the recorded Relative intensity ratio of EGFP fluorescence against Scramble II Duplex, NFKB for RARA siRNA: siRNA SEQ ID NO: 65 (Dharmacon), targets human retinoic acid receptor alpha NM_000964 (GUACUGCCGACUGCAGAAG; chemistry not given here) meets or exceeds 60%.
[A] Condition met
